Molecular target: T1, recombinant human CD3 epsilon/gamma heterodimer (human, UniProt P07766 23-126; P09693 23-116)
T1 construct: Recombinant protein in solution (200-50 nM) in the Octet assay; also called hCD3 E/G
T1 sequence (P07766 23-126, chain 1 of 2): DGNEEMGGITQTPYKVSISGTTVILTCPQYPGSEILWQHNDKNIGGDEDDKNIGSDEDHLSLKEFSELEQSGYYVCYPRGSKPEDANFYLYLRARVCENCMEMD
T1 sequence (P09693 23-116, chain 2 of 2): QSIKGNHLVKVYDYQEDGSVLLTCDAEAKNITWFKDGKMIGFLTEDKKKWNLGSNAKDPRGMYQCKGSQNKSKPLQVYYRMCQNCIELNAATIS
Test: Octet BLI, mAb on FAB2G sensor, hCD3 E/G 200-50 nM; R^2 0.98
endpoint: koff (s⁻¹)
Write down the numeric answer in s⁻¹ and omit the unit.

Some solved cases for reference:
binder	koff [s⁻¹]
ABL-CD3-63 (antibody, V domains shown, Chimeric hybridoma mAb: human V, CH1, upper hinge; mouse middle hinge, CH2, CH3) VH: QVQLQESGPGLVKPSETLSLTCTVSGGSISSYYWSWIRQPAGKGLEWIGRIYTSGSTKYNPSLKSRVTMSVDTSKNQFSLKLISVTAADTAVYFCARERIRDLYFDYWGQGTLVTVSS VL: NFMLTQPHSVSESPGKTVTISCTRTSGSIASNYVQWYQQRPGSSPTTVIYEDNQRPSGVPDRFSGSIDSSSNSASLTISGLKTEDEAAYYCQSYDRSNRVFGGGTKLTVL	0.0182
ABL-CD3-52 (antibody, V domains shown, Chimeric hybridoma mAb: human V, CH1, upper hinge; mouse middle hinge, CH2, CH3) VH: EVQLVESGGGLVKPGGSLRLSCAASGFTFSYYSMNWVRQAPGKGLEWVSSISRSTTYIYYADSVKGRFTISRDNAKNSLYLQMNSLRAEDTAVYYCARDGKGAIFLDYWGQGTLVTVSS VL: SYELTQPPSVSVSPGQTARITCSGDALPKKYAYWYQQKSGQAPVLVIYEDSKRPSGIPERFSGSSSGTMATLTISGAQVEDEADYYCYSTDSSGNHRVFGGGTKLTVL	0.115

We next turn to a different binder, shown below.
QUERY: Which koff is listed for ABL-CD3-46 (antibody, V domains shown, Chimeric hybridoma mAb: human V, CH1, upper hinge; mouse middle hinge, CH2, CH3) VH: EVQLVESGGGLVKPGGSLRLSCSASGFTFSTYTMNWVRQAPGKGLDWVSSISKSSTYIYYADSVKGRFTISRDNAKNSLYLQMNSLRAEDTAVYYCARERRTLAFDIWGQGTMVTVSS VL: NFMLTQPHSVSESPGKTVTISCTRSSGSIASNYVQWYQQRPGSSPTTVIYEDNQRPSGVPDRFSGSIDSSSNSASLTISGLKTEDEADYYCQCYDRSNRVFGGGTKLTVL ?
RESULT: 0.00333
